Target: mouse SLO3 (KSper currents in mouse sperm) (Mus musculus)
Construct: sperm were isolated from the corpus epididymis by swim-out; endogenous in cells; host or cells: C57Bl/6 mouse corpus epididymal sperm
Sequence (O54982 whole entry): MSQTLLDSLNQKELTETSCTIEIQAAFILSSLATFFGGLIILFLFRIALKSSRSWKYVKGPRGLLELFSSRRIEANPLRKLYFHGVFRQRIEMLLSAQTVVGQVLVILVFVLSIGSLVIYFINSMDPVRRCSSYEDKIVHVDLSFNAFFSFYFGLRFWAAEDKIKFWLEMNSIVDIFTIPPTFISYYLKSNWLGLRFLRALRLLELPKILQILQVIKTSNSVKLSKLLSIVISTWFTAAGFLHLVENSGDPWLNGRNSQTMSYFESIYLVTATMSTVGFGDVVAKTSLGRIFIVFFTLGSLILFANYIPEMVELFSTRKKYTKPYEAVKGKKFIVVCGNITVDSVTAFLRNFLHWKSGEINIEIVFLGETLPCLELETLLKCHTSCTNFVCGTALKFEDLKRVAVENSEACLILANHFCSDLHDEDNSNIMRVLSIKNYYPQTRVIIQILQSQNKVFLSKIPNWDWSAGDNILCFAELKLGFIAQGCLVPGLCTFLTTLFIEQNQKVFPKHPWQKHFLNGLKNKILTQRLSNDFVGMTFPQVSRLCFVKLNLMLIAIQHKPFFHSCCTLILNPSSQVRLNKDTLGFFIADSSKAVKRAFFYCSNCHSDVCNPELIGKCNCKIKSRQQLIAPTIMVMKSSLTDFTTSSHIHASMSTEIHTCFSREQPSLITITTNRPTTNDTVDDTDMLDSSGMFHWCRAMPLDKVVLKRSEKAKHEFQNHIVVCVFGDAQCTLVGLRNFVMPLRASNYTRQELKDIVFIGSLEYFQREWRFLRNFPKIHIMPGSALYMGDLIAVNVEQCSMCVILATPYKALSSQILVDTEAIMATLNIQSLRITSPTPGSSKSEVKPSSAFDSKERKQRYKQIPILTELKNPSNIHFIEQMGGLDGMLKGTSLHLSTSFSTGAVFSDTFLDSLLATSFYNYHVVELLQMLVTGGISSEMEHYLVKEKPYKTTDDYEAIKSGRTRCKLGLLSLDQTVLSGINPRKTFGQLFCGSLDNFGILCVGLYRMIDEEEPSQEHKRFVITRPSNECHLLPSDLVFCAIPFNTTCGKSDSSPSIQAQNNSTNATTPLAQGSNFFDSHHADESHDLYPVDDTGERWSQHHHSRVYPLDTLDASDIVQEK
Sequence (Q5M8M9 24-314 partner): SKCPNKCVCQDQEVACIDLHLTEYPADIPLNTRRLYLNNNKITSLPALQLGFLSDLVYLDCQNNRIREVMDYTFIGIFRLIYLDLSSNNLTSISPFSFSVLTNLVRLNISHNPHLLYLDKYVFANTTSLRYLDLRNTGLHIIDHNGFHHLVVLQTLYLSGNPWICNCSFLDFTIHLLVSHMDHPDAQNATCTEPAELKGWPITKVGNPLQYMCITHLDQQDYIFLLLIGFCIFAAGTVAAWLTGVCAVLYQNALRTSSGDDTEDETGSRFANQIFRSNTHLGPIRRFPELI
Assay: Whole-cell recording of KSper currents in mouse sperm
Type: cell-based
Conditions: whole-cell recordings from mouse sperm; read-out: mSLO3 IC50 (mouse sperm)
measured-attribute: IC50 (nM)
Write the value in nM as a bare number.

## Input Which IC50 value is on record for O=C(c1ccc(OCc2ccc(OC(F)(F)F)cc2)cc1)N1CCN(c2ccc(C(F)(F)F)cn2)CC1 ?
## Output 910

* * *

Test: Intrinsic clearance in liver microsomes
Type: in vitro ADME, human
Conditions: human, liver microsomes, pH 7.4, human liver microsomes; read-out: Human CLhep (in vitro hepatic clearance from microsomal CLint)
Protocol: The in vitro intrinsic clearance (CLint) was investigated in commercially obtained hepatic microsomes from mouse, rat, and human donors using the substrate depletion (i.e., loss-of-parent vs time, or half-life (t 1/2) method) approach with analyte detection via liquid chromatography–tandem mass spectrometry (LC-MS/MS). […] Predicted hepatic clearance (CLhep) was calculated by using the following equation: CLhep=Qh×CLint/Qh+CLint […]
Recorded CLhep predicted at 1 μM, one value per entry.

Solved entries:
compound	measured-attribute	test-result
O=C(c1ccc(OCc2ccc(OC(F)(F)F)cc2)cc1)N1CCN(c2ccc(C(F)(F)F)cn2)CC1 [VU6032735]	CLhep predicted at 1 μM	4.8 mL/min/kg
Cc1cc(Cl)cc2sc(O[C@@H]3CCN(C(=O)CCCS(=O)(=O)c4cccc(Br)c4)C[C@H]3F)nc12 [VU6047607]	CLhep predicted at 1 μM	17.2 mL/min/kg
Cc1cc(Cl)cc2sc(O[C@H]3CCN(C(=O)CCCS(=O)(=O)c4cccc(Br)c4)C[C@H]3F)nc12 [VU6047606]	CLhep predicted at 1 μM	> 15 mL/min/kg
Cc1cc(Cl)cc2sc(O[C@H]3CCN(C(=O)CCCS(=O)(=O)c4cccc(Br)c4)C[C@@H]3F)nc12 [VU6047609]	CLhep predicted at 1 μM	15.8 mL/min/kg

Switching to the query record.
## Input Which CLhep predicted at 1 μM value is on record for Cc1cc(Cl)cc2sc(O[C@@H]3CCN(C(=O)CCCS(=O)(=O)c4cccc(Br)c4)C[C@@H]3F)nc12 [VU6047608] ?
## Output 17.1 mL/min/kg
